Tested on: COLO 205
ASSAY_TEXT: In vitro cytotoxicity against human colon carcinoma (Colon-205) cells
Format: functional, cell-based
VALUE_TYPE: IC50 (µg/mL)
Unit µg/mL implied. Number only.

A selection of reference data follows.
- ENTRY_SMILES: "CN(C)CCOc1nccc(-c2ccc(-c3cccs3)s2)n1"
  VALUE_TYPE: "IC50"
  OBSERVED: 12
- ENTRY_SMILES: "CN(C)CCSc1nccc(-c2ccc(-c3cccs3)s2)n1"
  VALUE_TYPE: "IC50"
  OBSERVED: 30

What value of measured IC50 is listed for "CN(C)CCCOc1nccc(-c2ccc(-c3cccs3)s2)n1" ?
7

----------
System: COLO 205
ASSAY_TEXT: In vitro cytotoxicity against human colon carcinoma (Colon-205) cells
Assay type: functional, cell-based
VALUE_TYPE: IC50

A selection of reference data follows.
- ENTRY_SMILES: "CN(C)CCOc1nccc(-c2cccs2)n1"
  IC50: "> 50 µg/mL"
- ENTRY_SMILES: "CN(C)CCCOc1nccc(-c2cccs2)n1"
  IC50: "> 50 µg/mL"

// below: IC50 requested for another compound
What value of measured IC50 is listed for "CN(C)CCSc1nccc(-c2cccs2)n1" ?
> 50 µg/mL
